Recorded values, source patent US7268154B2.

target: NK-3 receptor (HEK293 stably expressing NK3) (Homo sapiens); construct: expressed in transfected cells; experiment: Calcium mobilization assay (FLIPR): enhancement of the Neurokinin B agonist response; type: cell-based; details: value in parentheses after EC50
As shown below, each of these molecules has a reported fold increase of the Neurokinin B agonistic effect value.
Give the quantity in fold, number only.

Solved cases below.
molecule=O=C(Cc1c(F)cccc1Cl)N[C@H]1CC[C@@H](n2cc(C(=O)Nc3ccccc3)nn2)CC1 data_value=1.6
molecule=O=C(c1cn([C@H]2CC[C@@H](NC(=O)C3(c4c(F)cccc4Cl)CCCC3)CC2)nn1)N1CCCC1 data_value=1.8
molecule=COc1ccc(C(=O)N[C@H]2CC[C@@H](n3cc(C(=O)N4CCCC4)nn3)CC2)cc1OC data_value=5.6
molecule=O=C(N[C@H]1CC[C@@H](n2cc(C(=O)N3CCCC3)nn2)CC1)c1cccc(-c2ccc(F)cc2)c1 data_value=1.6
molecule=Cc1cccc(-c2cccc(C(=O)N[C@H]3CC[C@@H](n4cc(C(=O)N5CCCC5)nn4)CC3)c2)c1 data_value=1.5

// assay NK-3 receptor (HEK293 stably expressing NK3) (Homo sapiens), entry O=C(Cc1c(F)cccc1Cl)N[C@H]1CC[C@@H](n2cc(C(=O)N3CCCC3)nn2)CC1 , fold increase of the Neurokinin B agonistic effect value = 2.3

// assay NK-3 receptor (HEK293 stably expressing NK3) (Homo sapiens), entry COc1ccccc1C(=O)N[C@H]1CC[C@@H](n2cc(C(=O)N3CCCC3)nn2)CC1 , fold increase of the Neurokinin B agonistic effect value = 3.2

// assay NK-3 receptor (HEK293 stably expressing NK3) (Homo sapiens), entry Cc1cc(Cl)ccc1OC(C)C(=O)N[C@H]1CC[C@@H](n2cc(C(=O)N3CCCC3)nn2)CC1 (relative stereo) , fold increase of the Neurokinin B agonistic effect value = 1.7

// assay NK-3 receptor (HEK293 stably expressing NK3) (Homo sapiens), entry O=C(N[C@H]1CC[C@@H](n2cc(C(=O)N3CCCC3)nn2)CC1)c1ccc(Cl)cc1 , fold increase of the Neurokinin B agonistic effect value = 2.2

---

target: NK-3 receptor (HEK293 stably expressing NK3) (Homo sapiens, UniProt P29371); assay: Calcium mobilization assay (FLIPR): enhancement of the Neurokinin B agonist response; details: agonist Neurokinin B with or without enhancer, Fluo-4 fluorescence, read-out: EC50 (efficacy as allosteric positive modulator of NK-3 receptor)
Sequence (P29371 whole entry): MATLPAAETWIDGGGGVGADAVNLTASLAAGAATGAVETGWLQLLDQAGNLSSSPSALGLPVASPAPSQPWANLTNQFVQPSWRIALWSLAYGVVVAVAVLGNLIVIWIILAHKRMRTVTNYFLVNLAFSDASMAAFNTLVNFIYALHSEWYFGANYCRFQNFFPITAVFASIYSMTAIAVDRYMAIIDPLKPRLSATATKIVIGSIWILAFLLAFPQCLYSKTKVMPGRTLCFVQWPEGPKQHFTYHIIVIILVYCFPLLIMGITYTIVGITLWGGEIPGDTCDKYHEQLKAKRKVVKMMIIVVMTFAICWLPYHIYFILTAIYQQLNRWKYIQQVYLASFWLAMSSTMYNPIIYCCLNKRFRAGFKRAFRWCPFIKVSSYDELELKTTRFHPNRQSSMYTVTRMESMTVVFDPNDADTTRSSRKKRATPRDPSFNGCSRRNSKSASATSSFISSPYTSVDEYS
ENDPOINT_LABEL: pEC50
Note on units: pEC50 is unitless, being -log10 of a concentration expressed in mol/L.

Solved cases below.
molecule=O=C(Cc1c(F)cccc1Cl)N[C@H]1CC[C@@H](n2cc(C(=O)Nc3ccccc3)nn2)CC1 assayed_target="NK-3 receptor (HEK293 stably expressing NK3) (Homo sapiens, UniProt P29371)" data_value=5.74
molecule=O=C(Cc1c(F)cccc1Cl)N[C@H]1CC[C@@H](n2cc(C(=O)N3CCCC3)nn2)CC1 assayed_target="NK-3 receptor (HEK293 stably expressing NK3) (Homo sapiens, UniProt P29371)" data_value=5.43
molecule=O=C(N[C@H]1CC[C@@H](n2cc(C(=O)N3CCCC3)nn2)CC1)c1ccc(Cl)cc1 assayed_target="NK-3 receptor (HEK293 stably expressing NK3) (Homo sapiens, UniProt P29371)" data_value=5.64

GET /value?item= O=C(N[C@H]1CC[C@@H](n2cc(C(=O)N3CCCC3)nn2)CC1)c1cccc(-c2ccc(F)cc2)c1 &field=pEC50 returns 6.07

GET /value?item= COc1ccccc1C(=O)N[C@H]1CC[C@@H](n2cc(C(=O)N3CCCC3)nn2)CC1 &field=pEC50 returns 5.38

GET /value?item= Cc1cccc(-c2cccc(C(=O)N[C@H]3CC[C@@H](n4cc(C(=O)N5CCCC5)nn4)CC3)c2)c1 &field=pEC50 returns 6.70

GET /value?item= Cc1cc(Cl)ccc1OC(C)C(=O)N[C@H]1CC[C@@H](n2cc(C(=O)N3CCCC3)nn2)CC1 (relative stereo) &field=pEC50 returns 6.25

GET /value?item= O=C(c1cn([C@H]2CC[C@@H](NC(=O)C3(c4c(F)cccc4Cl)CCCC3)CC2)nn1)N1CCCC1 &field=pEC50 returns 6.11

GET /value?item= COc1ccc(C(=O)N[C@H]2CC[C@@H](n3cc(C(=O)N4CCCC4)nn3)CC2)cc1OC &field=pEC50 returns 5.35
